- PROTOCOL DETAILS: Cmax in old healthy human at 4 mg/kg, iv administered as single dose 30 mins infusion
- Assay type: ADME, organism-based
- Set-up: dose 4 mg/kg, route intravenous
- CONDITION LABEL: in vivo
ASSAY READOUT: Cmax (ng/mL)
Could you give me the number in ng/mL? Just the number is fine.

Looking for the measured Cmax of `CCCCCCCCCC(=O)N[C@@H](Cc1c[nH]c2ccccc12)C(=O)N[C@H](CC(N)=O)C(=O)N[C@@H](CC(=O)O)C(=O)N[C@@H]1C(=O)NCC(=O)N[C@@H](CCCN)C(=O)N[C@@H](CC(=O)O)C(=O)N[C@H](C)C(=O)N[C@@H](CC(=O)O)C(=O)NCC(=O)N[C@H](CO)C(=O)N[C@@H]([C@H](C)CC(=O)O)C(=O)N[C@@H](CC(=O)c2ccccc2N)C(=O)O[C@@H]1C` , can you help?
44000

---

- PROTOCOL DETAILS: Apparent volume of distribution during terminal phase in healthy human subjects at 8 mg/kg, iv administered as 30 mins infusion every 24 hrs measured on day 4
- Type: ADME, organism-based
- Set-up: dose 8 mg/kg, route intravenous
- CONDITION LABEL: in vivo
ASSAY READOUT: Vd (L/kg)
Could you give me the number in L/kg? Just the number is fine.

Looking for the measured Vd of `CCCCCCCCCC(=O)N[C@@H](Cc1c[nH]c2ccccc12)C(=O)N[C@H](CC(N)=O)C(=O)N[C@@H](CC(=O)O)C(=O)N[C@@H]1C(=O)NCC(=O)N[C@@H](CCCN)C(=O)N[C@@H](CC(=O)O)C(=O)N[C@H](C)C(=O)N[C@@H](CC(=O)O)C(=O)NCC(=O)N[C@H](CO)C(=O)N[C@@H]([C@H](C)CC(=O)O)C(=O)N[C@@H](CC(=O)c2ccccc2N)C(=O)O[C@@H]1C` , can you help?
0.101

---

- PROTOCOL DETAILS: Clearance in healthy human subjects at 12 mg/kg, iv administered as 30 mins infusion every 24 hrs measured on day 14
- Format: ADME, organism-based
- Design: dose 12 mg/kg, route intravenous
- CONDITION LABEL: in vivo
ASSAY READOUT: clearance (mL/min/kg)
Could you give me the number in mL/min/kg? Just the number is fine.

Looking for the measured clearance of `CCCCCCCCCC(=O)N[C@@H](Cc1c[nH]c2ccccc12)C(=O)N[C@H](CC(N)=O)C(=O)N[C@@H](CC(=O)O)C(=O)N[C@@H]1C(=O)NCC(=O)N[C@@H](CCCN)C(=O)N[C@@H](CC(=O)O)C(=O)N[C@H](C)C(=O)N[C@@H](CC(=O)O)C(=O)NCC(=O)N[C@H](CO)C(=O)N[C@@H]([C@H](C)CC(=O)O)C(=O)N[C@@H](CC(=O)c2ccccc2N)C(=O)O[C@@H]1C` , can you help?
0.15

---

- PROTOCOL DETAILS: Drug excretion in young healthy human urine assessed as unchanged drug at 4 mg/kg, iv administered as single dose 30 mins infusion
- Type: ADME, organism-based
- Set-up: dose 4 mg/kg, route intravenous
- CONDITION LABEL: read-out: Drug uptake
ASSAY READOUT: dose excreted at 0.5 h
The reply should consist of the numeric value with the unit placed after it.

Looking for the measured dose excreted at 0.5 h of `CCCCCCCCCC(=O)N[C@@H](Cc1c[nH]c2ccccc12)C(=O)N[C@H](CC(N)=O)C(=O)N[C@@H](CC(=O)O)C(=O)N[C@@H]1C(=O)NCC(=O)N[C@@H](CCCN)C(=O)N[C@@H](CC(=O)O)C(=O)N[C@H](C)C(=O)N[C@@H](CC(=O)O)C(=O)NCC(=O)N[C@H](CO)C(=O)N[C@@H]([C@H](C)CC(=O)O)C(=O)N[C@@H](CC(=O)c2ccccc2N)C(=O)O[C@@H]1C` , can you help?
42.3%

---

- PROTOCOL DETAILS: Half life in old healthy human at 4 mg/kg, iv administered as single dose 30 mins infusion
- Format: ADME, organism-based
- Parameters: dose 4 mg/kg, route intravenous
- CONDITION LABEL: in vivo
ASSAY READOUT: half-life (h)
Could you give me the number in h? Just the number is fine.

Looking for the measured half-life of `CCCCCCCCCC(=O)N[C@@H](Cc1c[nH]c2ccccc12)C(=O)N[C@H](CC(N)=O)C(=O)N[C@@H](CC(=O)O)C(=O)N[C@@H]1C(=O)NCC(=O)N[C@@H](CCCN)C(=O)N[C@@H](CC(=O)O)C(=O)N[C@H](C)C(=O)N[C@@H](CC(=O)O)C(=O)NCC(=O)N[C@H](CO)C(=O)N[C@@H]([C@H](C)CC(=O)O)C(=O)N[C@@H](CC(=O)c2ccccc2N)C(=O)O[C@@H]1C` , can you help?
11.8

---

- PROTOCOL DETAILS: Half life in healthy human at 4 mg/kg, iv administered as single dose 30 mins infusion
- Assay type: ADME, organism-based
- Set-up: dose 4 mg/kg, route intravenous
- CONDITION LABEL: in vivo
ASSAY READOUT: half-life
The reply should consist of the numeric value with the unit placed after it.

Looking for the measured half-life of `CCCCCCCCCC(=O)N[C@@H](Cc1c[nH]c2ccccc12)C(=O)N[C@H](CC(N)=O)C(=O)N[C@@H](CC(=O)O)C(=O)N[C@@H]1C(=O)NCC(=O)N[C@@H](CCCN)C(=O)N[C@@H](CC(=O)O)C(=O)N[C@H](C)C(=O)N[C@@H](CC(=O)O)C(=O)NCC(=O)N[C@H](CO)C(=O)N[C@@H]([C@H](C)CC(=O)O)C(=O)N[C@@H](CC(=O)c2ccccc2N)C(=O)O[C@@H]1C` , can you help?
7.74 h

---

- PROTOCOL DETAILS: Plasma protein binding in human after 2 hrs
- Assay type: ADME, cell-free
- CONDITION LABEL: read-out: PPB (converted)
ASSAY READOUT: fraction unbound at 2 h
Format: numeric value only, no unit, no commentary.

Looking for the measured fraction unbound at 2 h of `CCCCCCCCCC(=O)N[C@@H](Cc1c[nH]c2ccccc12)C(=O)N[C@H](CC(N)=O)C(=O)N[C@@H](CC(=O)O)C(=O)N[C@@H]1C(=O)NCC(=O)N[C@@H](CCCN)C(=O)N[C@@H](CC(=O)O)C(=O)N[C@H](C)C(=O)N[C@@H](CC(=O)O)C(=O)NCC(=O)N[C@H](CO)C(=O)N[C@@H]([C@H](C)CC(=O)O)C(=O)N[C@@H](CC(=O)c2ccccc2N)C(=O)O[C@@H]1C` , can you help?
0.063

---

- PROTOCOL DETAILS: AUC (0 to infinity) in nonobese adult human at 4 mg/kg, iv administered as single dose 30 mins infusion
- Assay type: ADME, organism-based
- Set-up: time infinity, dose 4 mg/kg, route intravenous
- CONDITION LABEL: plasma
ASSAY READOUT: AUC(0-inf) (µg·h/mL)
Could you give me the number in µg·h/mL? Just the number is fine.

Looking for the measured AUC(0-inf) of `CCCCCCCCCC(=O)N[C@@H](Cc1c[nH]c2ccccc12)C(=O)N[C@H](CC(N)=O)C(=O)N[C@@H](CC(=O)O)C(=O)N[C@@H]1C(=O)NCC(=O)N[C@@H](CCCN)C(=O)N[C@@H](CC(=O)O)C(=O)N[C@H](C)C(=O)N[C@@H](CC(=O)O)C(=O)NCC(=O)N[C@H](CO)C(=O)N[C@@H]([C@H](C)CC(=O)O)C(=O)N[C@@H](CC(=O)c2ccccc2N)C(=O)O[C@@H]1C` , can you help?
322

---

- PROTOCOL DETAILS: Unbound fraction in healthy human plasma at 6 mg/kg, iv administered as 30 mins infusion every 24 hrs measured on day 7
- Format: ADME, organism-based
- Design: dose 6 mg/kg, route intravenous
ASSAY READOUT: fraction unbound at 7 day
Format: numeric value only, no unit, no commentary.

Looking for the measured fraction unbound at 7 day of `CCCCCCCCCC(=O)N[C@@H](Cc1c[nH]c2ccccc12)C(=O)N[C@H](CC(N)=O)C(=O)N[C@@H](CC(=O)O)C(=O)N[C@@H]1C(=O)NCC(=O)N[C@@H](CCCN)C(=O)N[C@@H](CC(=O)O)C(=O)N[C@H](C)C(=O)N[C@@H](CC(=O)O)C(=O)NCC(=O)N[C@H](CO)C(=O)N[C@@H]([C@H](C)CC(=O)O)C(=O)N[C@@H](CC(=O)c2ccccc2N)C(=O)O[C@@H]1C` , can you help?
0.08

---

- PROTOCOL DETAILS: Half life in healthy human at 6 mg/kg, iv administered as 30 mins infusion every 24 hrs measured on day 7
- Type: ADME, organism-based
- Design: dose 6 mg/kg, route intravenous
- CONDITION LABEL: in vivo
ASSAY READOUT: half-life

Looking for the measured half-life of `CCCCCCCCCC(=O)N[C@@H](Cc1c[nH]c2ccccc12)C(=O)N[C@H](CC(N)=O)C(=O)N[C@@H](CC(=O)O)C(=O)N[C@@H]1C(=O)NCC(=O)N[C@@H](CCCN)C(=O)N[C@@H](CC(=O)O)C(=O)N[C@H](C)C(=O)N[C@@H](CC(=O)O)C(=O)NCC(=O)N[C@H](CO)C(=O)N[C@@H]([C@H](C)CC(=O)O)C(=O)N[C@@H](CC(=O)c2ccccc2N)C(=O)O[C@@H]1C` , can you help?
8.9 h
